Kindly supply the reported pKd values for the records listed here.
- subject_of_test: T1, EsCas13d, nuclease-dead (Eubacterium siraeum, UniProt B0MS50, R295A;H300A;R849A;H854A)
- T1 sequence: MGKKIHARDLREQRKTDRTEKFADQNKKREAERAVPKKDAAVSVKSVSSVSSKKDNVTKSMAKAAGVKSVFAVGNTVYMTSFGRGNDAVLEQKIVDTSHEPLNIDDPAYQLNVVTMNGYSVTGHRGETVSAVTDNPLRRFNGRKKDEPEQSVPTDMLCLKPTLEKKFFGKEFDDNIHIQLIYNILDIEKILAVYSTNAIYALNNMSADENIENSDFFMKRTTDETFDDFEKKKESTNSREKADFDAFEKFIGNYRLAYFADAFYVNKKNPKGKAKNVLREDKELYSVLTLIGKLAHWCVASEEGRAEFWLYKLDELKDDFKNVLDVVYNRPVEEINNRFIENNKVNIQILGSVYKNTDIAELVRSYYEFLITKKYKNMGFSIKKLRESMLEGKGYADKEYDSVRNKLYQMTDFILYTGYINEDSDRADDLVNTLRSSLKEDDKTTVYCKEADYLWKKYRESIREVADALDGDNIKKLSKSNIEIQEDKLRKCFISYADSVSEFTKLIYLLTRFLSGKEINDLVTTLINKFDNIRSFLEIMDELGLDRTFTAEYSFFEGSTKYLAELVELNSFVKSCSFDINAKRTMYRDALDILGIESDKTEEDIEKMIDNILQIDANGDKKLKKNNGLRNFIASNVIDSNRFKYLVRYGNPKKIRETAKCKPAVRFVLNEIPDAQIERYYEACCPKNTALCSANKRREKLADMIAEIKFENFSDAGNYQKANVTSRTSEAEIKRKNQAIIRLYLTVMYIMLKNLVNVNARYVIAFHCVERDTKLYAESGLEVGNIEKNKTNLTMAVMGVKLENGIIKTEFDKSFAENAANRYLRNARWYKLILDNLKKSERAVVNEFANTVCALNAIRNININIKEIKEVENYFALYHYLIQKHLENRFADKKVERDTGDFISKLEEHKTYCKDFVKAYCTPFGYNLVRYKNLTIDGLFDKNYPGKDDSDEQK
- assay: crRNA (strand 1, pre-loaded); Mg2+; 40 mM Tris-HCl pH 7.5, 150 mM NaCl, 6 mM MgCl2, 1 mM DTT, 0.1% Tween-20, 0.2 mg/ml BSA; 25 C; 10 min per concentration, then washed
- measurement_conditions: tags: His6-TwinStrep-SUMO cleaved; N-terminal SNAP kept (SNAP-Surface 488); label: 3' end held by stalled T7 RNA polymerase
API: returns pKd as number; meaning -log10 of concentration in mol/L.

Field request: pKd | item: target 1 C2G,G12C (mixed) RNA 1: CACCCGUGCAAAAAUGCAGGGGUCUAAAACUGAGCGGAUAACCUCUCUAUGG RNA 2: GGGAAUGGAUCCACAUCUACGAAUUCGUACCAUAGAGAGCUUAUCCGCUGACCGAGAUCGGAAGAGCACACGU
8.08

Field request: pKd | item: target 3 A5U,U22A (mixed) RNA 1: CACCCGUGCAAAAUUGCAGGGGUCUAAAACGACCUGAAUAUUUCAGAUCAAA RNA 2: GGGAAUGGAUCCACAUCUACGAAUUCGUUAUUGAUCUGAAAUAUUCUGGUCUGCAGAUCGGAAGAGCACACGU
7.32
